# System under test: T1, Her2 on CHO cells (CHO-Her2) (UniProt P04626 23-1255, limits assumed)
# T1 construct: whole, on cells
# Assay explanation: FACS on CHO-Her2 cells, purified IgG, R-PE anti-mouse IgG
# Experimental: CHO-Her2, CHO-Her4, CHO-EGFR cells were harvested and resuspended in PBS, 2% FBS at a concentration of approximately 1×10⁶/ml. Cells were stained with purified IgGs at 4° C. for 40 min. Cells were washed with 4 mL PBS, 2% FBS, then centrifuged at 1200 rpm for 10 minutes. Supernatant was removed. Cells were stained with R-PE conjugated anti-mouse IgG at 4° C. for 30 min. […] Cells were analyzed on a FACS Calibur (BD Biosciences) by collecting 20,000 events from gate 1.
Quantity kind: binding result

Binder	Quantity kind	Observed measurement
588F41 (antibody, V domains shown, Purified mouse IgG from a hybridoma; also called 588F41-HC; 588F41-LC) VH: EVQLQQSGPELVKPGASVKMSCKASGYTFTSYVMHWVKQKPGQGLEWLGYINPYNDGTKYNEKFKGMATLTSDKSSSTAYMELISLTSEDSAVYYCAREASYGNPFAYWGQGTLVTVSA VL: DIVMTQSPASLSASVGETVTITCRTSENIYSYLAWFQQKQGNSPQLLVYNTKTLAEGVPSRFSGSGSGTQFSLKINSLQPEDFGNYYCQHHYDTPWTFGGGTKLEIKR	binding result	no binding
588E22 (antibody, V domains shown, Purified mouse IgG from a hybridoma; also called 588E22-HC; 588E22-LC) VH: DVQLQESGPELVGPGESVKISCKGSGYTFTDYGMHWVKQSHAKRLEWIGVITIYDGHTNYNQNFKGKAALTVDKSSNTAYPELARMTSEDSAIYYCARGDYDLFWYLDVWGAGTTVTVSS VL: DVVMTQTPLSLTVSLGDQASISCRSSQNIKHSDGNTYLEWYLQKPGQSPKLLIYKVSNRFSGVPDRFSGSGSGTDFTLKISRVEAEDLGVYFCFQGSHVPLTFGAGTKLELKR	binding result	no binding
PO-1C9-C4 (antibody, V domains shown, Purified mouse IgG from a hybridoma; also called PO-1C9-C4-HC; PO-1C9-C4-LC) VH: QVQLQQPGSELVRPGASVKLSCKASGYTFTIFWIHWVKQRPGQGLEWIGNIYPGSGGTNYDEKFKSKATLTVDTFSSTAYMQLSSLTSEDSAVYYCTRWGTGKDYWGQGTTLTVSS VL: DIVLTQSPAIMSASPGEKVTMTCRARSSVSSSYLHWYQQKPGSSPKLWIYSTSNLALGVPARFSGSGSGTSYSLTISSVEAEDAATYYCQQYDSSPFTFGTGTKLEIKR	binding result	no binding
PO-3H7-E3 (antibody, V domains shown, Purified mouse IgG from a hybridoma; also called PO-3H7-E3-HC; PO-3H7-E3-LC) VH: EVQLQQSGAELVKPGASVKISCKASGYSFTGYYMNWVKQSHGKSLEWIGNINPYYGGSNYNQKFKARATLTVDKSSSTAYMQLNSLTSEDSAVYYCARKGDLYYSMDYWGQGTSVTVSS VL: DIVMTQTPLSLPVSLGDQASISCRSSQSIVHSNGNTYLEWYLQKPGQSPKLLIYKVSNRFSGVPDRFSGSGSGTDFTLKISRVEAEDLGIYYCFQGSHVPPTFGGGTKLELKR	binding result	no binding

Sourced from patent US20120195831A1
